Data credit: patent US20250027068

target or test system: pooled human IgG (human IgG1,2,3 and 4)
measured endpoint: Enzyme activity endpoint: scIgG

- protein: "PRT-613 (protein) MQITTVWTKGVTPLTPEQFRYNNEDVIHAPYLAHQGWYDITKAFDGKDNLLCGAATAGNMLHWWFDQNKTEIEAYLSKHPEKQKIIFNNQELFDLKAAISTKDSQTNSQLFNYFRDKAFPNLSARQLGVMPDLVLDMFINGYYLNVFKTQSTDVNRPYQDKDKRGGIFDDVFTRGDQTTLLTARHDLKNGGLNDISTIIKQELTNGRALALSHTYANVSISHVINLWGADFNAEGNLEAIYVTDSDANARIGMKKYGVGINAHGHVAISAKKIEGENIGAQVLGLFTLSSGKDIWQKLSLEHHHHHH"
  reported measurement: "251 ng/µL"
- protein: "PRT-531 (protein) MANQEIRYSEDTPSHITSVWTKGVTPPTQFIQNEDVLHAPYIANQGWYDITKTFNGKDDLLCGAATAGNMLHWWFDQNKEQIEAYLKKYPEKQKINFNGEQMFDVKEAIDTKDSQTDSALFNYFRDKAFPNLSTKHLGVMPDHVIDMFINGYRLNLGNHGPTPVKNQTKDLRGGIFDAVFTRGDQSKLLTARHDFKEKTLKEISQLIKQELTEGKALALSHTYANVRINHVINLWGADFNAEGNLEAIYVTDSDSNASIGMKKYYVGVNAAGKVAISAKEIEGDNIGAQVLGLFTLSSGQDIWQQTNLEHHHHHH"
  reported measurement: "0 ng/µL"
- protein: "PRT-672 (protein) MQITSVWTKGVTPPTPEQFTYQNEDVFHAPYIANQGWYDITKTFNGKDNLLCGAATAGNMLHWWFDQNKTEIENYLKKHPEKQKIIFNNQEMFDLRKAINTKDSQTNSALFEYFRDKAFPNLSARQLGVMPDHVLDMFINGYYLNVTKTQSTDVNRPYQTKDKRGGIFDHVFTRGDQSKLLTARHDLKNKTLNEISDLIKQELTEGKALALSHTYANVRINHVINLWGADFDAEGNLEAIYVTDSDSNASIGMKKYFVGVNSSGKVAISAKKIEDDNIGAQVLGLFTLSSGQDIWEQLSLEHHHHHH"
  reported measurement: "0 ng/µL"

API: the following record is the query input.
Problem: Return the recorded Enzyme activity endpoint: scIgG value; entry: PRT-645 (protein) MQITSVWTKGVTPLTPEQFRYNNEDVIHAPYLAHQGWYDITKAFDGKDNLLCGAATAGNMLHWWFDQNKTEIEAYLSKHPEKQKIIFNNQELFDLKAAIDTKDSQTNSQLFNYFRDKAFPNLSARQLGVMPDLVLDMFINGYYLNVFKTQSTDVNRPYQDKDKRGGIFDAVFTRGDQTTLLTARHDLKNKGLNDISTIIKQELTEGRALALSHTYANVSISHVINLWGADFNAEGNLEAIYVTDSDANASIGMKKYYVGYNKSGRVAISAYKITDENIGAQVLGLFTLSSGKDIWQKLSLEHHHHHH
Solution: 236 ng/µL
